Source of measurements: ChEMBL document CHEMBL1135823

- test_target: Tyrosine-protein phosphatase non-receptor type 1 (Homo sapiens)
- Sequence (P18031 whole entry): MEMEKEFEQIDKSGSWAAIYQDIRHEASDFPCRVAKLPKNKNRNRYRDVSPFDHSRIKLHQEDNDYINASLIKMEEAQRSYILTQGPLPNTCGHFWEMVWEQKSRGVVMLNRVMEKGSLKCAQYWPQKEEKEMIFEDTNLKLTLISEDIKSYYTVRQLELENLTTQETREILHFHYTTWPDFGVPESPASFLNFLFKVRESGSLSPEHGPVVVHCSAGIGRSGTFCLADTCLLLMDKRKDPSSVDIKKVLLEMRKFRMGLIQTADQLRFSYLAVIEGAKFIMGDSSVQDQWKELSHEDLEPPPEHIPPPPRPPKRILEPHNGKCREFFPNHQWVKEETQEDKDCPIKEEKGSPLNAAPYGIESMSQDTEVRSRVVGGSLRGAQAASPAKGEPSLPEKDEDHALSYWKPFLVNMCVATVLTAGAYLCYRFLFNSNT
- assay: Inhibitory effect against recombinant human protein-tyrosine phosphatase 1B (PTP1B), using p-nitrophenyl phosphate substrate at pH 5.5.
A collection of compounds and their measured log10 of Ki
For clarity, the numbers are log10 values of Ki expressed in nM.

test_smiles | log10 of Ki
O=C1CCc2c(sc(NC(=O)C(=O)O)c2C(=O)O)C1 | 3.11
O=C(O)C(=O)Nc1sc2c(c1C(=O)O)CCN(CCc1ccccc1)C2 | 2.43
O=C(O)C(=O)Nc1sc2c(c1C(=O)O)CCNC2 | 2.46
O=C(O)C(=O)Nc1ccc(-c2ccccc2)cc1C(=O)O | 4.15
COc1ccc(-c2cc(NC(=O)C(=O)O)c(C(=O)O)s2)cc1 | 3.95

Query compound follows.
Q: Field request: log10 of Ki | item: COc1cccc(CN2CCc3c(sc(NC(=O)C(=O)O)c3C(=O)O)C2)c1
A: 2.85

###

- test_target: Receptor-type tyrosine-protein phosphatase F (Homo sapiens, UniProt P10586)
- Sequence (P10586 whole entry): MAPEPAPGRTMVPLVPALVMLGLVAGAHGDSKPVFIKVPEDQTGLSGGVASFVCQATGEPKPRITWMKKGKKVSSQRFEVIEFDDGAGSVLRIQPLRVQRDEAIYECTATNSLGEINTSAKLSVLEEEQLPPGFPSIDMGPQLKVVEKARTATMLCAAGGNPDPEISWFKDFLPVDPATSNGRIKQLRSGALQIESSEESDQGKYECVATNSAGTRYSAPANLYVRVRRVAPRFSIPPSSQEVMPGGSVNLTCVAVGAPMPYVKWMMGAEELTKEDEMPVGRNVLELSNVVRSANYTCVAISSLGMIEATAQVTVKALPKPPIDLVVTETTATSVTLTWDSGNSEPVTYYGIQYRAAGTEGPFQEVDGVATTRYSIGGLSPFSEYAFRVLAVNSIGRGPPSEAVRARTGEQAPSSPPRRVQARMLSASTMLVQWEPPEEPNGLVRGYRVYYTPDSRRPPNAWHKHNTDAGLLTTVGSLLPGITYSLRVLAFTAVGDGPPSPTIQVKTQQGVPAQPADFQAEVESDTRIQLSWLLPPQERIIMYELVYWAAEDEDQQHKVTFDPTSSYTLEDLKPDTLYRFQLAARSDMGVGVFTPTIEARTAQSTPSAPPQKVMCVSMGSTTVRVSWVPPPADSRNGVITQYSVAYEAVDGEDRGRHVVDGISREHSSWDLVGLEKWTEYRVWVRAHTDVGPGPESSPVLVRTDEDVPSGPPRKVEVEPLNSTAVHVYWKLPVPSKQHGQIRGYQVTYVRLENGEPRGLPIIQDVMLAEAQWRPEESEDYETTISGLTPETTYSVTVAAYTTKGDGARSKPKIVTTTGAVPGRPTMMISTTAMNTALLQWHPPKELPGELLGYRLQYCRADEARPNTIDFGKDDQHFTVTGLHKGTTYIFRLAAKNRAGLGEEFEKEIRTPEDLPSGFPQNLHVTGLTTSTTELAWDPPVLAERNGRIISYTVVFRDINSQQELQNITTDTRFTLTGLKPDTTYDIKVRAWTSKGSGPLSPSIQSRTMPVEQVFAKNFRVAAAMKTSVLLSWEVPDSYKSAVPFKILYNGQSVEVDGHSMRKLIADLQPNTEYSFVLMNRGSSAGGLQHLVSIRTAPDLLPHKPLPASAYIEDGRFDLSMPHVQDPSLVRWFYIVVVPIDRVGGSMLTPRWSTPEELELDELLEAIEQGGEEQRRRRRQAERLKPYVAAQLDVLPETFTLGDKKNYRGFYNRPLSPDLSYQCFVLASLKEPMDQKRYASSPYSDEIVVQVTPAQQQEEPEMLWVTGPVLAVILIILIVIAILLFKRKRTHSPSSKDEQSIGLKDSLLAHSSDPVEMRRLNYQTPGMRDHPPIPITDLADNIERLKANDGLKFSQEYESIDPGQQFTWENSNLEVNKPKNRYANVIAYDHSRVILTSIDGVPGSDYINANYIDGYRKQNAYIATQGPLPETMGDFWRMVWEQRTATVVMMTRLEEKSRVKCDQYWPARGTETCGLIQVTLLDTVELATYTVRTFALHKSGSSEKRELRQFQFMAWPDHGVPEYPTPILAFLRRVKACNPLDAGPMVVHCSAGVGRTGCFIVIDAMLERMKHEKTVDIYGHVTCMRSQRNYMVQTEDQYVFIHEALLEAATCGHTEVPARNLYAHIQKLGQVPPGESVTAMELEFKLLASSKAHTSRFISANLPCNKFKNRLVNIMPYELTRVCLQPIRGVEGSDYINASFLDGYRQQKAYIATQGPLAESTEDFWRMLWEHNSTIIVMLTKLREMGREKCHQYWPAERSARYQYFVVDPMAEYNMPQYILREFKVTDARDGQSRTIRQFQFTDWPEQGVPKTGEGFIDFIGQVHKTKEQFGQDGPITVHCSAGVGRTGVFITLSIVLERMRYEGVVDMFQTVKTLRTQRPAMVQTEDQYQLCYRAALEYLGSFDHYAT
- assay: Inhibitory effect against protein-tyrosine phosphatase Lar, using p-nitrophenyl phosphate as substrate at pH 5.5.
A collection of compounds and their measured pKi
The quantity pKi is defined as the negative base-10 logarithm of the molar concentration.

Consider the worked cases shown below.
test_smiles | test_target | pKi
O=C(O)C(=O)Nc1ccsc1C(=O)O | Receptor-type tyrosine-protein phosphatase F (Homo sapiens, UniProt P10586) | 2.70
Cc1csc(C(=O)O)c1NC(=O)C(=O)O | Receptor-type tyrosine-protein phosphatase F (Homo sapiens, UniProt P10586) | 2.70
O=C(O)C(=O)Nc1cc(-c2ccccc2)sc1C(=O)O | Receptor-type tyrosine-protein phosphatase F (Homo sapiens, UniProt P10586) | 4.05
O=C(O)C(=O)Nc1ccc(I)cc1C(=O)O | Receptor-type tyrosine-protein phosphatase F (Homo sapiens, UniProt P10586) | 3.38

Q: Field request: pKi | item: O=C(O)COc1ccc(-c2cc(NC(=O)C(=O)O)c(C(=O)O)s2)cc1
A: 4.30

Q: Field request: pKi | item: O=C(O)C(=O)Nc1cc(-c2cccc([N+](=O)[O-])c2)sc1C(=O)O
A: 3.78

###

A collection of molecules and their measured bioavailability
- assay: Oral bioavailability
- Type: ADME, organism-based
- reported_conditions: eutheria, in vivo, read-out: f (po)
Form entry: value (%) — number only.

test_smiles | bioavailability / %
O=C(O)C(=O)Nc1sc2c(c1C(=O)O)CCOC2 | 85
O=C(O)C(=O)Nc1sc2c(c1C(=O)O)CCNC2 | 56

Query molecule follows.
Q: Field request: bioavailability | item: O=C(O)C(=O)Nc1sc2c(c1C(=O)O)CCN(CCc1ccccc1)C2
A: 13

###

- test_target: UniProtKB P18031
- assay: Inhibition of human recombinant Protein-tyrosine phosphatase 1B.
pKi: −log10 of the molar value.
If the reported pKi equals or exceeds 5, assign YES. If not, assign NO.

Reference set, count: 7
test_smiles | test_target | class
O=C(O)C(=O)Nc1sc2c(c1C(=O)O)CCNC2 | UniProtKB P18031 | YES
O=C(O)C(=O)Nc1sc2c(c1C(=O)O)CCN(CCc1ccccc1OCc1ccccc1)C2 | UniProtKB P18031 | NO
O=C(O)C(=O)Nc1sc2c(c1C(=O)O)CCN(CCc1ccc(OCc3ccccc3)cc1)C2 | UniProtKB P18031 | NO
O=C(O)C(=O)Nc1sc2c(c1C(=O)O)CCN(Cc1ccccc1)C2 | UniProtKB P18031 | NO
O=C(O)C(=O)Nc1sc2c(c1C(=O)O)CCN(CCC(c1ccccc1)c1ccccc1)C2 | UniProtKB P18031 | YES
O=C(O)C(=O)Nc1sc2c(c1C(=O)O)CCN(Cc1ccc3ccccc3c1)C2 | UniProtKB P18031 | NO
O=C(O)C(=O)Nc1sc2c(c1C(=O)O)CCN(Cc1ccc3ccccc3n1)C2 | UniProtKB P18031 | NO

Now, please, on to the next compound.
Q: Textbook exercise: given the entry O=C(O)C(=O)Nc1sc2c(c1C(=O)O)CCN(Cc1ccccn1)C2 , state whether its pKi is greater than or equal to 5.
A: NO

###

- test_target: Tyrosine-protein phosphatase non-receptor type 1 (Homo sapiens, UniProt P18031)
- assay: Inhibitory effect against recombinant human protein-tyrosine phosphatase 1B (PTP1B), using p-nitrophenyl phosphate substrate at pH 5.5.
measured_endpoint: log10 of Ki (log10 of the value in µM)
For clarity, the numbers are log10 values of Ki expressed in µM.

compound | log10 of Ki
COc1cc(OC)cc(-c2cc(NC(=O)C(=O)O)c(C(=O)O)s2)c1 | 0.90

Query compound follows.
Q: Field request: log10 of Ki | item: Cc1cccc(NC(=O)C(=O)O)c1C(=O)O
A: 3.23

###

A collection of molecules and their measured clearance
- assay: Pharmacokinetic Parameter clearance was reported for Protein Tyrosine Phosphatase 1B
- Format: ADME, organism-based
- reported_conditions: in vivo
Number first, unit second.

test_smiles | clearance
O=C(O)C(=O)Nc1sc2c(c1C(=O)O)CCN(CCc1ccccc1)C2 | 6.4 mL/min/kg

Q: Field request: clearance | item: O=C(O)C(=O)Nc1sc2c(c1C(=O)O)CCNC2
A: 6.4 mL/min/kg

Q: Field request: clearance | item: O=C(O)C(=O)Nc1sc2c(c1C(=O)O)CCOC2
A: 17 mL/min/kg

###

- test_target: Tyrosine-protein phosphatase non-receptor type 1 (Homo sapiens, UniProt P18031)
- assay: Inhibitory effect against recombinant human protein-tyrosine phosphatase 1B (PTP1B), using p-nitrophenyl phosphate substrate at pH 5.5.
A collection of molecules and their measured Ki

test_smiles | Ki
O=C(O)C(=O)Nc1sc2c(c1C(=O)O)CCN(Cc1ccccn1)C2 | 1 µM

Q: Field request: Ki | item: Cc1csc(C(=O)O)c1NC(=O)C(=O)O
A: 2000 µM

Q: Field request: Ki | item: CC(C)Cc1ccc(-c2cc(NC(=O)C(=O)O)c(C(=O)O)s2)cc1
A: 13 µM

Q: Field request: Ki | item: O=C(O)C(=O)Nc1sccc1C(=O)O
A: 108 µM

Q: Field request: Ki | item: O=C(O)C(=O)Nc1ccc2cc[nH]c2c1C(=O)O
A: 18 µM

Q: Field request: Ki | item: O=C(O)C(=O)Nc1cc2[nH]ccc2cc1C(=O)O
A: 8 µM

###

- assay: Pharmacokinetic Parameter half life was reported for Protein Tyrosine Phosphatase 1B
- Assay type: ADME, organism-based
- reported_conditions: in vivo
measured_endpoint: half-life (h)
Form entry: value (h) — number only.

Q: Field request: half-life | item: O=C(O)C(=O)Nc1sc2c(c1C(=O)O)CCNC2
A: 2.8

###

- test_target: UniProt:P10586
- assay: Inhibitory effect against protein-tyrosine phosphatase Lar, using p-nitrophenyl phosphate as substrate at pH 5.5.
A collection of compounds and their measured pKi
The quantity pKi is defined as the negative base-10 logarithm of the molar concentration.

Consider the worked cases shown below.
test_smiles | test_target | measured_result
O=C(O)C(=O)Nc1cc2[nH]ccc2cc1C(=O)O | UniProt:P10586 | 3.35
O=C(O)C(=O)Nc1ccc(-c2ccccc2)cc1C(=O)O | UniProt:P10586 | 3.15
O=C(O)C(=O)Nc1ccc2cc[nH]c2c1C(=O)O | UniProt:P10586 | 3.26
O=C(O)C(=O)Nc1sc2c(c1C(=O)O)CCCC2 | UniProt:P10586 | 3.39
Nc1cccc(-c2cc(NC(=O)C(=O)O)c(C(=O)O)s2)c1 | UniProt:P10586 | 3.95
CC(C)Cc1ccc(-c2cc(NC(=O)C(=O)O)c(C(=O)O)s2)cc1 | UniProt:P10586 | 4.30
O=C(O)C(=O)Nc1sc2c(c1C(=O)O)CCC2 | UniProt:P10586 | 3.05

Q: Field request: pKi | item: O=C(O)C(=O)Nc1cc(-c2ccsc2)sc1C(=O)O
A: 4.05
